Values were extracted from paper PMC11605156.

- measurement_target: CYP2B6 (Homo sapiens, UniProt P20813)
- Sequence (P20813 1-491): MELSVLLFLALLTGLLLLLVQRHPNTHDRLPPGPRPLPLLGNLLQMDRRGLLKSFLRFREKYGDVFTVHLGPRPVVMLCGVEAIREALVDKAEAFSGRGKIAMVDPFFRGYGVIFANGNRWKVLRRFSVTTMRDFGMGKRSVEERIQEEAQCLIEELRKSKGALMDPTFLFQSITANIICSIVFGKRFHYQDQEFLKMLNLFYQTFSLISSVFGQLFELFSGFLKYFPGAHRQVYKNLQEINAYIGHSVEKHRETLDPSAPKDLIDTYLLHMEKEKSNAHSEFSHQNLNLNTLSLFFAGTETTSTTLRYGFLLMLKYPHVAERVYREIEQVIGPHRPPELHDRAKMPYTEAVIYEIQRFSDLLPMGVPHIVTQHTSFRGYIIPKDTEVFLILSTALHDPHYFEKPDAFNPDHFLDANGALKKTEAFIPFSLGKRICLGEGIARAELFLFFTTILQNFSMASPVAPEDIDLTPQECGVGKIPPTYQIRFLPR
- assay_protocol: CYP2B6 inhibition, probe/drug metabolism in human liver microsomes
- test_context: IC50 against metabolism of sertraline mediated by CYP2B6, substrate sertraline 5 μM, 30 min
pIC50: −log10 of the molar value.

# molecule, pIC50
data = [
    ("CC(CCC(O)C(C)(O)CO)C1CCC2(C)C3=C(C(=O)CC12C)C1(C)CCC(=O)C(C)(C)C1CC3 (stereo not shown)", 4.60),
]

* * *

compounds and their reported pIC50
- measurement_target: UniProt P05177
- Sequence (P05177 whole entry): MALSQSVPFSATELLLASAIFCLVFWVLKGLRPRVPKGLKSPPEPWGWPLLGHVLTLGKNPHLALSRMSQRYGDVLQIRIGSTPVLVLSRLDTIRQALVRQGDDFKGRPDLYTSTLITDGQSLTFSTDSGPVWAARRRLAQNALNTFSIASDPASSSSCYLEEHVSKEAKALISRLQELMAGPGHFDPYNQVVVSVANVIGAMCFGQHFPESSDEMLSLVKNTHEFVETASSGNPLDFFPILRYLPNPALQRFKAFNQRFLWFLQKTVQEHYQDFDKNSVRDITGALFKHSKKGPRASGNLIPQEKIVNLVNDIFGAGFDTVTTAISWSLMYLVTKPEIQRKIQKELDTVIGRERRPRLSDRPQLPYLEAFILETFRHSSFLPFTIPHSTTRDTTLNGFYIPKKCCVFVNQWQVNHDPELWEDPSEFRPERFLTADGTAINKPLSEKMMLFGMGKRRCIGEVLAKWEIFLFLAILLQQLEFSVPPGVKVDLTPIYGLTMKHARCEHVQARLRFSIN
- assay_protocol: CYP1A2 inhibition, probe/drug metabolism in human liver microsomes (LC-MS/MS)
- test_context: IC50 against CYP 1A2, substrate phenacetin 40 μM, HLM
pIC50: −log10 of the molar value.
endpoint: pIC50

# compound, obs_value
measured = [
    ("CC(CC(=O)CC(C)C1CC(O)C2(C)C3=C(C(=O)CC12C)C1(C)CCC(=O)C(C)(C)C1CC3)C(=O)O (stereo not drawn) [Compound 42]", 4.67),
    ("CC(=O)OC1C(=O)C2=C(C(O)CC3C2(C)CCC(O)C3(C)C)C2(C)C(=O)CC(C(C)=CC(=O)CC(C)C(=O)O)C12C (stereo not drawn) [Compound 7]", 4.89),
    ("CC(CC(=O)CC(C)C1CC(O)C2(C)C3=C(C(=O)CC12C)C1(C)CCC(=O)C(C)(C)C1CC3=O)C(=O)O (stereo not drawn) [Compound 45]", 4.74),
]

* * *

- measurement_target: CYP2B6 (Homo sapiens, UniProt P20813)
- assay_protocol: CYP2B6 inhibition, probe/drug metabolism in human liver microsomes
- test_context: human, human liver microsomes, pH 7.4, probe bupropion 75 μM, Residual activity (%) CYP2B6, HLM 0.5 mg/mL, bupropion 75 μM, 30 min
molecules and their reported activity at 30 min

# molecule, activity at 30 min [%]
data = [
    ("CC(CC(=O)CC(C)C1CC(=O)C2(C)C3=C(C(=O)C(O)C12C)C1(C)CCC(=O)C(C)(CO)C1CC3O)C(=O)O (stereo not drawn)", 75.3),
    ("CC(=CC(=O)CC(C)C(=O)O)C1CC(=O)C2(C)C3=C(C(=O)CC12C)C1(C)CCC(=O)C(C)(C)C1CC3O (stereo not drawn)", 77.8),
    ("CC(=O)OC1C(=O)C2=C(C(=O)CC3C2(C)CCC(O)C3(C)C)C2(C)C(=O)CC(C3(C)CCC(=O)O3)C12C (stereo not drawn)", 84.1),
]

* * *

compounds and their reported activity at 30 min
- measurement_target: CYP2A6 (Homo sapiens)
- Sequence (P11509 whole entry): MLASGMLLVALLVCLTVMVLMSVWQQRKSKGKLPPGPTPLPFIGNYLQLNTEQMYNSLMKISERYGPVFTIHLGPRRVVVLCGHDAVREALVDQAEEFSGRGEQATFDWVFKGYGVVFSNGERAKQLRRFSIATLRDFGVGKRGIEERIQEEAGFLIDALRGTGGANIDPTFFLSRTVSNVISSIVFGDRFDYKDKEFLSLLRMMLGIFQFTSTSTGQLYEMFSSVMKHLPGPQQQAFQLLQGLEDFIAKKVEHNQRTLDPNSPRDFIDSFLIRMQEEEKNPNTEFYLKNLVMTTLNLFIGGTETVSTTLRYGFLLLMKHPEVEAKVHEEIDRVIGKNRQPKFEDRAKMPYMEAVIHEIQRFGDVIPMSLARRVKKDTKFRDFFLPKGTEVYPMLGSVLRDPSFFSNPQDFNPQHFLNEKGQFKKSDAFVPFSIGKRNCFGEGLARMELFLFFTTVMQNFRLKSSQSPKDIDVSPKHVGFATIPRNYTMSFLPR
- assay_protocol: CYP2A6 inhibition, coumarin probe in human liver microsomes
- test_context: human, human liver microsomes, pH 7.4, probe coumarin 2 μM, Residual activity (%) CYP2A6, HLM 0.5 mg/mL

# compound, unit_of_measurement, activity at 30 min
records = [
    ("CC(=CC(=O)CC(C)C(=O)O)C1CC(=O)C2(C)C3=C(C(=O)C(O)C12C)C1(C)CCC(O)C(C)(C)C1CC3=O (stereo not shown)", "%", 91.9),
    ("CC1(C)CCC2(C(=O)O)CCC3(C)C(=CC(=O)C4C5(C)CCC(O)C(C)(C)C5CCC43C)C2C1 (stereo not shown)", "%", 104),
    ("CC(CC(=O)CC(C)C1CC(=O)C2(C)C3=C(C(=O)CC12C)C1(C)CCC(O)C(C)(CO)C1CC3O)C(=O)O (stereo not shown)", "%", 78.4),
    ("CC(CC(=O)CC(C)C1CC(O)C2(C)C3=C(C(=O)CC12C)C1(C)CCC(=O)C(C)(C)C1CC3)C(=O)O (stereo not shown)", "%", 83.7),
    ("CC(=O)OC1C(=O)C2=C(C(O)CC3C2(C)CCC(O)C3(C)C)C2(C)C(=O)CC(C(C)=CC(=O)CC(C)C(=O)O)C12C (stereo not shown)", "%", 88),
    ("CC(=CC(=O)CC(C)C(=O)O)C1CC(=O)C2(C)C3=C(C(=O)CC12C)C1(C)CCC(=O)C(C)(CO)C1CC3O (stereo not shown)", "%", 79.5),
    ("CC(CC(=O)CC(C)C1CC(=O)C2(C)C3=C(C(=O)C(O)C12C)C1(C)CCC(=O)C(C)(CO)C1CC3O)C(=O)O (stereo not shown)", "%", 79.9),
    ("CC(CC(=O)CC(C)C1CC(=O)C2(C)C3=C(C(=O)CC12C)C1(C)CCC(=O)C(C)(CO)C1CC3O)C(=O)O (stereo not shown)", "%", 79.1),
    ("CC(=O)OC1C(=O)C2=C(C(=O)CC3C(C)(C)C(=O)CCC23C)C2(C)C(=O)CC(C(C)CC(O)C=C(C)C(=O)O)C12C (stereo not shown)", "%", 86.2),
    ("CC(CC(=O)CC(C)C1CC(O)C2(C)C3=C(C(=O)CC12C)C1(C)CCC(O)C(C)(CO)C1CC3=O)C(=O)O (stereo not shown)", "%", 81.2),
]
